- Measurement Target: T1, cyno ENTPD2 expressed on NIH/3T3 cells (cynomolgus macaque, UniProt Q9Y5L3 1-495 (human entry))
- T1 chain: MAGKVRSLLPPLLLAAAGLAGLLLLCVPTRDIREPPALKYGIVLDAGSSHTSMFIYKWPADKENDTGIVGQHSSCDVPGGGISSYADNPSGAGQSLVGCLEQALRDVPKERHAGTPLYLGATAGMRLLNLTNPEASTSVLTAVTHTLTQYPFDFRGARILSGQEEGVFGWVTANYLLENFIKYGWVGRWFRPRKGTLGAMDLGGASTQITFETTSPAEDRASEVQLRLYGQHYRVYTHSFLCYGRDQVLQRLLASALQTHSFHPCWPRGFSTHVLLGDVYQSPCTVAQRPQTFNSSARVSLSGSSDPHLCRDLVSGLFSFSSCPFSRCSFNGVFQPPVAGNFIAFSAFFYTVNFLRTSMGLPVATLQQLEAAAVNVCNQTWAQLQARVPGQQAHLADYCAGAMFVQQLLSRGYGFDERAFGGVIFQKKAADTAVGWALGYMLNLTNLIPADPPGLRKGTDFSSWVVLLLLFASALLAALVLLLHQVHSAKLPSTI
- Protocol Description: cell-based or functional assay
Property Measured: % inhibition, Cyno ENTPD2 NIH/3T3 Assay (%)
One number for each entry, in %.

Please report % inhibition, Cyno ENTPD2 NIH/3T3 Assay for every entry that follows.
1. ANTI-HUMAN ENTPD2 MAB8 (antibody, human IgG1, lambda, V domains shown, also called Anti-ENTPD2 mAb8) VH: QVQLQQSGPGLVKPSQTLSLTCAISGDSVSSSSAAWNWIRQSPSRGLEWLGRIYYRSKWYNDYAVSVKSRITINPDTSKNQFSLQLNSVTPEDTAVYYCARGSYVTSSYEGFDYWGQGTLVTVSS VL: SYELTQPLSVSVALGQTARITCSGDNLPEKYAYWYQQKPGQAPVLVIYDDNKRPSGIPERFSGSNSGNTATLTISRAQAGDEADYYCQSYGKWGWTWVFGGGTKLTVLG
2. ANTI-HUMAN ENTPD2 MAB9 (antibody, human IgG1, lambda, V domains shown, also called Anti-ENTPD2 mAb9) VH: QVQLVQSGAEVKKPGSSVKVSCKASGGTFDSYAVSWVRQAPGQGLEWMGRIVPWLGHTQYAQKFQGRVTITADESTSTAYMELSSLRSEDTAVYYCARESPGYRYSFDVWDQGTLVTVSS VL: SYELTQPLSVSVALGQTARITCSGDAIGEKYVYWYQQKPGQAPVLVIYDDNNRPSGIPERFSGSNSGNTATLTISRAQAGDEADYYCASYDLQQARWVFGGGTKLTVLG
3. ANTI-HUMAN ENTPD2 MAB5 (antibody, human IgG1, kappa, V domains shown, humanized and optimized from mAb16; human IgG1, kappa; also called Anti-ENTPD2 mAb5) VH: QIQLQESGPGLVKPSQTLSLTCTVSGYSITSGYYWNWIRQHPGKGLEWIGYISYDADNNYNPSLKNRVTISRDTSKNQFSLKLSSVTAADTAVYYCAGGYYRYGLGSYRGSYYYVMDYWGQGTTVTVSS VL: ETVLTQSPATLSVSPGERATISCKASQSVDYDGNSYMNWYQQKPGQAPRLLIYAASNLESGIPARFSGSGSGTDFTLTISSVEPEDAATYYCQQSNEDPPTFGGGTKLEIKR
4. ANTI-HUMAN ENTPD2 MAB17 (antibody, human IgG1, kappa, V domains shown) VH: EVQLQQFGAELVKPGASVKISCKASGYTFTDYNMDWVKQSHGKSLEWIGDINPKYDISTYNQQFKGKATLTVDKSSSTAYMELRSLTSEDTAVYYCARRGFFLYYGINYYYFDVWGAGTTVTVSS VL: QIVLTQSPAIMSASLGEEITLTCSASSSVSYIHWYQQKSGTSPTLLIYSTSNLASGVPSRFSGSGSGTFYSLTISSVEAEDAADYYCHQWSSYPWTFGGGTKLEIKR
5. ANTI-HUMAN ENTPD2 MAB10 (antibody, human IgG1, lambda, V domains shown, also called Anti-ENTPD2 mAb10) VH: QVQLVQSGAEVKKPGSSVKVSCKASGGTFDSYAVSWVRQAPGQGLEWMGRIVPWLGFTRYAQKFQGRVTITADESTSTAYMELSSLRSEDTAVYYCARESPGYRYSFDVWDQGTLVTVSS VL: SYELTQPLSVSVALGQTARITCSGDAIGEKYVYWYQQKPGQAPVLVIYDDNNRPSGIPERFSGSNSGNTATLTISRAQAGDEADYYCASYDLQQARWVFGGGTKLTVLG

1: 96; 2: 71; 3: 80; 4: 91; 5: 86
